Sourced from patent US6974804B2

test.name: Gelling of water-immiscible cosmetic liquids in 96 well glass micro-titre plate
Assay type: physicochemical
Parameters: key: gel; g4: gel after overnight (18 hrs) storage at 4° C.; g22: gel after overnight (18 hrs) storage at 22° C.; sg: soft gel; sg22: soft gel after overnight (18 hrs) storage at 22° C.; solution; *: the test at 4° C. was not carried out
setup.conditions: 5% cellobiose ester in DC556
assay.endpoint: gelling of DC556

Some compounds with recorded gelling of DC556:
{"compound": "CCCCCCCCCC(=O)OCC1OC(OC2C(COC(=O)CCCCCCCCC)OC(OC(=O)c3ccccc3)C(OC(=O)CCCCCCCCC)C2OC(=O)CCCCCCCCC)C(OC(=O)CCCCCCCCC)C(OC(=O)CCCCCCCCC)C1OC(=O)CCCCCCCCC (mixture of isomers) [Ex 2.2]", "assay.endpoint": "gelling of DC556", "experimental.result": "gel"}
{"compound": "CCCCCCCCCCCCCCCC(=O)OC1OC(COC(=O)CCCCCCCCC)C(OC2OC(COC(=O)CCCCCCCCC)C(OC(=O)CCCCCCCCC)C(OC(=O)CCCCCCCCC)C2OC(=O)CCCCCCCCC)C(OC(=O)CCCCCCCCC)C1OC(=O)CCCCCCCCC (mixture of isomers) [Ex 2.12]", "assay.endpoint": "gelling of DC556", "experimental.result": "gel"}
{"compound": "CCCCCCCCC(=O)OCC1OC(OC2C(COC(=O)CCCCCCCC)OC(OC(C)=O)C(OC(=O)CCCCCCCC)C2OC(=O)CCCCCCCC)C(OC(=O)CCCCCCCC)C(OC(=O)CCCCCCCC)C1OC(=O)CCCCCCCC (mixture of isomers) [Ex 1.6]", "assay.endpoint": "gelling of DC556", "experimental.result": "sg22"}
{"compound": "CCCCCCCCCCCCCCCC(=O)OC1OC(COC(=O)CCCCCCCCC)C(OC2OC(COC(=O)CCCCCCCCC)C(OC(=O)CCCCCCCCC)C(OC(=O)CCCCCCCCC)C2OC(=O)CCCCCCCCC)C(OC(=O)CCCCCCCCC)C1OC(=O)CCCCCCCCC (mixture of isomers) [Ex 2.13]", "assay.endpoint": "gelling of DC556", "experimental.result": "gel"}
{"compound": "CCCCCCCCCC(=O)OCC1OC(OC2C(COC(=O)CCCCCCCCC)OC(OC(C)=O)C(OC(=O)CCCCCCCCC)C2OC(=O)CCCCCCCCC)C(OC(=O)CCCCCCCCC)C(OC(=O)CCCCCCCCC)C1OC(=O)CCCCCCCCC (mixture of isomers) [Ex 2.4]", "assay.endpoint": "gelling of DC556", "experimental.result": "gel"}

For each of the items listed, what is its gelling of DC556?
1. CCCCCCCCC(=O)OCC1OC(OC2C(COC(=O)CCCCCCCC)OC(OC(=O)C3CCCCC3)C(OC(=O)CCCCCCCC)C2OC(=O)CCCCCCCC)C(OC(=O)CCCCCCCC)C(OC(=O)CCCCCCCC)C1OC(=O)CCCCCCCC (mixture of isomers) [Ex 1.11]
2. CCCCCCCCC(=O)OCC1OC(OC2C(COC(=O)CCCCCCCC)OC(OC(=O)c3ccc4ccccc4c3)C(OC(=O)CCCCCCCC)C2OC(=O)CCCCCCCC)C(OC(=O)CCCCCCCC)C(OC(=O)CCCCCCCC)C1OC(=O)CCCCCCCC (mixture of isomers) [Ex 1.3]
3. CCCCCCCCC(=O)OCC1OC(OC2C(COC(=O)CCCCCCCC)OC(OC(=O)c3ccccc3)C(OC(=O)CCCCCCCC)C2OC(=O)CCCCCCCC)C(OC(=O)CCCCCCCC)C(OC(=O)CCCCCCCC)C1OC(=O)CCCCCCCC (mixture of isomers) [Ex 1.2]
4. CCCCCCCCC(=O)OCC1OC(OC2C(COC(=O)CCCCCCCC)OC(OC(=O)C3CCCC3)C(OC(=O)CCCCCCCC)C2OC(=O)CCCCCCCC)C(OC(=O)CCCCCCCC)C(OC(=O)CCCCCCCC)C1OC(=O)CCCCCCCC (mixture of isomers) [Ex 3.5]
5. CCCCCCCCC(=O)OCC1OC(OC2C(COC(=O)CCCCCCCC)OC(OC(=O)CCC)C(OC(=O)CCCCCCCC)C2OC(=O)CCCCCCCC)C(OC(=O)CCCCCCCC)C(OC(=O)CCCCCCCC)C1OC(=O)CCCCCCCC (mixture of isomers) [Ex 1.18]
6. CCCCCCCCCC(=O)OCC1OC(OC2C(COC(=O)CCCCCCCCC)OC(OC(C)=O)C(OC(=O)CCCCCCCCC)C2OC(=O)CCCCCCCCC)C(OC(=O)CCCCCCCCC)C(OC(=O)CCCCCCCCC)C1OC(=O)CCCCCCCCC (mixture of isomers) [Ex 2.5]

### Response
1: g22; 2: gel; 3: gel; 4: g22; 5: gel; 6: gel

Each of the following entries comes with a recorded value; kindly state gelling of DC556 for each.
1. CCCCCCCCCC(=O)OCC1OC(OC2C(COC(=O)CCCCCCCCC)OC(OC(=O)c3ccc4ccccc4c3)C(OC(=O)CCCCCCCCC)C2OC(=O)CCCCCCCCC)C(OC(=O)CCCCCCCCC)C(OC(=O)CCCCCCCCC)C1OC(=O)CCCCCCCCC (mixture of isomers) [Ex 2.7]
2. CCCCCCCCCCCCCCCC(=O)OC1OC(COC(=O)CCCCCCCC)C(OC2OC(COC(=O)CCCCCCCC)C(OC(=O)CCCCCCCC)C(OC(=O)CCCCCCCC)C2OC(=O)CCCCCCCC)C(OC(=O)CCCCCCCC)C1OC(=O)CCCCCCCC (mixture of isomers) [Ex 1.8]

### Response
["gel", "gel"]

Fill in gelling of DC556 for each of the 2 compounds listed.
1. CCCCCCCCCCCCCCCC(=O)OC1OC(COC(=O)CCCCCCCC)C(OC2OC(COC(=O)CCCCCCCC)C(OC(=O)CCCCCCCC)C(OC(=O)CCCCCCCC)C2OC(=O)CCCCCCCC)C(OC(=O)CCCCCCCC)C1OC(=O)CCCCCCCC (mixture of isomers) [Ex 1.9]
2. CCCCCCCCCC(=O)OCC1OC(OC2C(COC(=O)CCCCCCCCC)OC(OC(=O)c3ccccc3)C(OC(=O)CCCCCCCCC)C2OC(=O)CCCCCCCCC)C(OC(=O)CCCCCCCCC)C(OC(=O)CCCCCCCCC)C1OC(=O)CCCCCCCCC (mixture of isomers) [Ex 2.1]

### Response
gel
gel

---

test.name: Gelling of water-immiscible cosmetic liquids in 96 well glass micro-titre plate
Assay type: physicochemical
Design: key: gel; g4: gel after overnight (18 hrs) storage at 4° C.; g22: gel after overnight (18 hrs) storage at 22° C.; sg: soft gel; sg22: soft gel after overnight (18 hrs) storage at 22° C.; solution; *: the test at 4° C. was not carried out
setup.conditions: 5% cellobiose ester in ISA; 150° C. 2.5 hours, cooled to ambient

{"compound": "CCCCCCCCC(=O)OCC1OC(OC2C(COC(=O)CCCCCCCC)OC(OC(=O)CC)C(OC(=O)CCCCCCCC)C2OC(=O)CCCCCCCC)C(OC(=O)CCCCCCCC)C(OC(=O)CCCCCCCC)C1OC(=O)CCCCCCCC (mixture of isomers) [Ex 1.16]", "gelling of ISA": "gel"}
{"compound": "CCCCCCCCC(=O)OCC1OC(OC2C(COC(=O)CCCCCCCC)OC(OC(=O)CCC)C(OC(=O)CCCCCCCC)C2OC(=O)CCCCCCCC)C(OC(=O)CCCCCCCC)C(OC(=O)CCCCCCCC)C1OC(=O)CCCCCCCC (mixture of isomers) [Ex 1.18]", "gelling of ISA": "sg22"}
{"compound": "CCCCCCCCCC(=O)OCC1OC(OC2C(COC(=O)CCCCCCCCC)OC(OC(=O)c3ccc(-c4ccccc4)cc3)C(OC(=O)CCCCCCCCC)C2OC(=O)CCCCCCCCC)C(OC(=O)CCCCCCCCC)C(OC(=O)CCCCCCCCC)C1OC(=O)CCCCCCCCC (mixture of isomers) [Ex 2.9]", "gelling of ISA": "g22"}
{"compound": "CCCCCCCCC(=O)OCC1OC(OC2C(COC(=O)CCCCCCCC)OC(OC(=O)c3ccccc3)C(OC(=O)CCCCCCCC)C2OC(=O)CCCCCCCC)C(OC(=O)CCCCCCCC)C(OC(=O)CCCCCCCC)C1OC(=O)CCCCCCCC (mixture of isomers) [Ex 1.2]", "gelling of ISA": "sg"}

---

test.name: Gelling of water-immiscible cosmetic liquids in 96 well glass micro-titre plate
Assay type: physicochemical
Parameters: key: gel; g4: gel after overnight (18 hrs) storage at 4° C.; g22: gel after overnight (18 hrs) storage at 22° C.; sg: soft gel; sg22: soft gel after overnight (18 hrs) storage at 22° C.; solution; *: the test at 4° C. was not carried out
setup.conditions: 5% cellobiose ester in Mineral oil
Experimental: In this Example, various samples of esterified cellobiose prepared as in Example 1 or 2 above, were used to gel water-immiscible cosmetic liquids, in accordance with the procedure given below, in which a large number of gels can be prepared simultaneously. The samples were tested in a 96 well (8×12 rows) glass micro-titre plate. […] The contents of the wells were assessed at the end of the cooling period, by visual inspection and by poking the contents of each well with a micro-spatula. […]

{"molecule": "CCCCCCCCC(=O)OCC1OC(OC2C(COC(=O)CCCCCCCC)OC(OC(C)=O)C(OC(=O)CCCCCCCC)C2OC(=O)CCCCCCCC)C(OC(=O)CCCCCCCC)C(OC(=O)CCCCCCCC)C1OC(=O)CCCCCCCC (mixture of isomers) [Ex 1.6]", "gelling of Mineral oil": "sg"}
{"molecule": "CCCCCCCCCC(=O)OCC1OC(OC2C(COC(=O)CCCCCCCCC)OC(OC(C)=O)C(OC(=O)CCCCCCCCC)C2OC(=O)CCCCCCCCC)C(OC(=O)CCCCCCCCC)C(OC(=O)CCCCCCCCC)C1OC(=O)CCCCCCCCC (mixture of isomers) [Ex 2.5]", "gelling of Mineral oil": "gel"}
{"molecule": "CCCCCCCCCC(=O)OCC1OC(OC2C(COC(=O)CCCCCCCCC)OC(OC(C)=O)C(OC(=O)CCCCCCCCC)C2OC(=O)CCCCCCCCC)C(OC(=O)CCCCCCCCC)C(OC(=O)CCCCCCCCC)C1OC(=O)CCCCCCCCC (mixture of isomers) [Ex 2.4]", "gelling of Mineral oil": "gel"}
{"molecule": "CCCCCCCCCCCCCCCC(=O)OC1OC(COC(=O)CCCCCCCCC)C(OC2OC(COC(=O)CCCCCCCCC)C(OC(=O)CCCCCCCCC)C(OC(=O)CCCCCCCCC)C2OC(=O)CCCCCCCCC)C(OC(=O)CCCCCCCCC)C1OC(=O)CCCCCCCCC (mixture of isomers) [Ex 2.13]", "gelling of Mineral oil": "gel"}
